molecular target: IRF5 [change], tagged with either His or biotin (human); assay: FRET or BRET
VALUE_KIND: IC50

IN: What does the data say about its IC50? Entry: Ac-IRLQISNPYLKFIPLKRAIWLIK-NH2 [IRF5-CPP1]
OUT: > 75 µM
